- Test system: mono-methyl arginine in RKO cells
- TEST: RKO Methylation Assay, In Cell Western (ICW) for mono-methyl arginine and DNA content
- Format: cell-based
- MEASUREMENT PARAMETERS: Homo sapiens, RKO, 72 h, RKO cells, 72 hours, mono-methyl arginine, percent activation; single experiment or average of multiple experiments; read-out: EC30 (In Cell Western data, Numerical)
Classification scheme (EC30): LOW (below 900 nM), MEDIUM (900 nM to below 4000 nM), HIGH (4000 nM or more)

Data request: Category of COc1ccc(F)cc1-c1n[nH]cc1CN(C)CCN [Compound 160] , please.
Data returned: HIGH

Data request: Band assignment needed for CCC(COC)Oc1ccc(-c2n[nH]cc2CN(C)CCNC)cc1 (stereo not shown) [Compound 310] please.
Data returned: LOW

Data request: For the record Cc1cc(Cl)ccc1-c1n[nH]cc1CN(C)CCN [Compound 133] , report the class its EC30 corresponds to.
Data returned: MEDIUM

Data request: Lab note: sort CN(CCN)Cc1n[nH]cc1-c1ccc(Cl)cc1 [Compound 102] into the matching EC30 band.
Data returned: MEDIUM

Data request: Where would CC[C@H](C)Oc1ccc(-c2n[nH]cc2CN(C)CCNC)cc1 [Compound 309] land among the classes by reported EC30?
Data returned: LOW

Data request: Using the reported EC30, which band applies to CCN(CCN)Cc1c[nH]nc1-c1ccc(F)cc1 [Compound 62] ?
Data returned: HIGH

Data request: Which class holds CCC(=O)N1CCN(c2ccc(-c3n[nH]cc3CN(C)CCN)cc2)CC1 [Compound 189] ?
Data returned: HIGH

Data request: Bin? CNCCN(C)Cc1c[nH]nc1-c1ccc(OCC2CC2)cc1 [Compound 288]
Data returned: LOW

Data request: Please classify: CN(CCN)Cc1c[nH]nc1-c1ccc(OCCCO)cc1 [Compound 195]
Data returned: HIGH

Data request: Which category fits this record: CN(CCN)Cc1c[nH]nc1-c1ccc(C(F)(F)F)cc1 [Compound 92]
Data returned: MEDIUM

Data request: State the band of CN(CCN)Cc1cnn(C2COC2)c1-c1ccc(F)cc1 [Compound 81]
Data returned: HIGH

Data request: Which band does CNCCN(C)Cc1c[nH]nc1-c1cc(CC(C)C)cc(CC(C)C)c1 [Compound 281] fall in?
Data returned: MEDIUM

Data request: # classify by EC30 band: CNCCN(C)Cc1c[nH]nc1-c1ccc(Oc2ccccc2)cc1 [Compound 37]
Data returned: LOW

Data request: Lab note: sort CNCCN(C)Cc1n[nH]cc1-c1cc(C(C)C)cc(C(C)C)c1 [Compound 242] into the matching EC30 band.
Data returned: HIGH

Data request: Kindly state the category for this compound: CN(CCN)Cc1c[nH]nc1-c1ccccc1 [Compound 73]
Data returned: HIGH

Data request: Which class holds CNCCN(C)Cc1n[nH]cc1-c1cc(Cl)c(OC(C)C)c(Cl)c1 [Compound 273] ?
Data returned: MEDIUM

Data request: Place this compound in its band: CNCCN(C)Cc1cn(Cc2ccccc2)nc1-c1ccc(OC(C)C)cc1 [Compound 217]
Data returned: MEDIUM

Data request: Please classify: CN(CCN)Cc1c[nH]nc1-c1ccc(Oc2ccccc2)c(C#N)c1 [Compound 202]
Data returned: MEDIUM

Data request: Returns: class label. Input: CN(CCN)Cc1c[nH]nc1-c1ccc(OC(F)(F)F)cc1 [Compound 93]
Data returned: MEDIUM

Data request: Textbook exercise: identify the category of the compound given here, COc1cc(F)ccc1-c1n[nH]cc1CN(C)CCN [Compound 151] , according to its measured value.
Data returned: HIGH

Data request: Which class is correct for the following compound? CNCCN(C)Cc1c[nH]nc1-c1ccc(Oc2ccccc2C(=O)NC)cc1 [Compound 274]
Data returned: MEDIUM

Data request: Please indicate the class for CC(C)CN1C(=O)COc2ccc(-c3n[nH]cc3CN(C)CCN)cc21 [Compound 191] based on its EC30.
Data returned: HIGH

Data request: // return the class label for CC(C)Cc1ccc(-c2c[nH]nc2CN(C)CCN)cc1 [Compound 170]
Data returned: MEDIUM

Data request: Field: class (EC30) — entry: Cc1ccc(-c2n[nH]cc2CN(C)CCN)cc1 [Compound 162]
Data returned: MEDIUM

Data request: Form: Item = Cc1cc(F)ccc1-c1n[nH]cc1CN(C)CCN [Compound 152] ; Class = ?
Data returned: HIGH

Data request: Band assignment needed for CNCCN(C)Cc1cn[nH]c1-c1ccc(OC(C)C)c(Cl)c1 [Compound 201] please.
Data returned: LOW

Data request: Which class does CN(CCN)Cc1c[nH]nc1-c1ccc(C(F)(F)F)cc1Cl [Compound 135] fall in?
Data returned: HIGH

Data request: Class label required: CNCCN(C)Cc1n[nH]cc1-c1ccc(Oc2cccc(C(=O)NC)c2)cc1 [Compound 268]
Data returned: MEDIUM

Data request: Could you place CN(CCN)Cc1c[nH]nc1-c1ccc(F)cc1 [Compound 1] in its proper category? Many thanks.
Data returned: HIGH

Data request: Form: Item = CN(CCN)Cc1c[nH]nc1-c1ccc(Oc2ccccc2)cc1 [Compound 200] ; Class = ?
Data returned: LOW

Data request: Hi there! Could you help me figure out the category for CN(CCN)Cc1c[nH]nc1-c1ccc(Cl)cc1Cl [Compound 86] please?
Data returned: HIGH

Data request: Please report the category associated with CC(C)Cc1ccc(-c2n[nH]cc2CN(C)CCN)cc1 [Compound 165] , nothing else.
Data returned: LOW

Data request: Any idea which band Cc1ccc(C#N)cc1-c1n[nH]cc1CN(C)CCN [Compound 158] is in?
Data returned: HIGH

Data request: Looking at CCOc1ccc(-c2n[nH]cc2CN(C)CCNC)cc1 [Compound 294] , which class would you pick?
Data returned: LOW

Data request: In plain terms, what class is CCn1cc(CN(C)CCNC)c(-c2ccc(OC(C)C)cc2)n1 [Compound 213] ?
Data returned: LOW

Data request: Exercise: read the entry CN(CCN)Cc1c[nH]nc1-c1ccc(F)cc1F [Compound 99] and state which class it falls under.
Data returned: HIGH

Data request: Textbook exercise: identify the category of the compound given here, CN(CCN)Cc1c[nH]nc1-c1cccc(Cl)c1F [Compound 123] , according to its measured value.
Data returned: MEDIUM

Data request: # bin lookup: classify CNCCN(C)Cc1c[nH]nc1-c1ccc(OCCCOC)c(Cl)c1 [Compound 228] by its EC30
Data returned: LOW

====

- TESTED ON: human PRMT6 (Homo sapiens)
- Construct: Flag-PRMT6-His; made in house; host or cells: HEK 293F cells (BacMam baculovirus)
- Sequence (Q96LA8 with tags, fused parts or gaps): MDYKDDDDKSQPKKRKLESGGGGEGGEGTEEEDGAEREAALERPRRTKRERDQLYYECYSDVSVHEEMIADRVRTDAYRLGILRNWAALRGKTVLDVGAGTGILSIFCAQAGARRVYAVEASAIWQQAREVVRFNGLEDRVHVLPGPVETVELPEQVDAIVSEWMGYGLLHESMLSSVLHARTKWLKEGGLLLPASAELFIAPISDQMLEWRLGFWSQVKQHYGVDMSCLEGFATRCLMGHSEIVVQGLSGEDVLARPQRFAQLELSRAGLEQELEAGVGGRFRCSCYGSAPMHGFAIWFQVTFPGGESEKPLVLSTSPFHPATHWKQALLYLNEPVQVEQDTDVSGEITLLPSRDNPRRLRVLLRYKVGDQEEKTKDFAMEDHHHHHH
- TEST: PRMT6 Biochemical Assay (3H-SAM Flashplate, peptide substrate)
- MEASUREMENT PARAMETERS: Biochemical IC50 PRMT6, single experiment or average of multiple experiments
The class of a record is decided solely by its measured IC50; consult low range: < 0.02 µM; mid range: ≥ 0.02 µM and < 0.1 µM; high range: ≥ 0.1 µM

Data request: Looking at `COc1cc(-c2n[nH]cc2CN(C)CCN)ccc1F` , which class would you pick?
Data returned: low range

Data request: In plain terms, what class is `COc1ccc(-c2n[nH]cc2CN(C)CCN)c(C(F)(F)F)c1` ?
Data returned: high range

Data request: Exam item: assign `Cc1ccc(-c2n[nH]cc2CN(C)CCN)c(F)c1` to the correct category.
Data returned: low range

Data request: Entry `CN(CCN)Cc1cnn(C)c1-c1ccc(F)cc1` belongs to which category?
Data returned: mid range

Data request: Form field 'band' for `CN(CCN)Cc1cn(CC2COC2)nc1-c1ccc(F)cc1`
Data returned: high range

Data request: Dear colleague, I would appreciate it if you could identify the bin for `CC(=O)c1cccc(-c2n[nH]cc2CN(C)CCN)c1` and reply at your convenience.
Data returned: mid range

Data request: Returns: class label. Input: `CCn1cc(CN(C)CCNC)c(-c2ccc(OC(C)C)cc2)n1`
Data returned: mid range

Data request: Note: place this molecule into its band. Item: `CNCCN(C)Cc1c(-c2ccc(OCCCOC)cc2)cnn1C`
Data returned: high range

Data request: Returns: class label. Input: `CN(CCN)Cc1c[nH]nc1-c1ccc(C(F)(F)F)cc1C(F)(F)F`
Data returned: high range

Data request: Please let me know in which category the item `NCCN(CCO)Cc1c[nH]nc1-c1ccc(F)cc1` belongs.
Data returned: high range

Data request: Band of `COCCn1ncc(CN(C)CCN(C)C)c1-c1ccc(F)cc1` ?
Data returned: high range

Data request: Class? Entry: `CN(CCN1CCC1)Cc1c[nH]nc1-c1ccc(C#N)cc1`
Data returned: high range

Data request: Tag the class for `CN(CCN)Cc1c[nH]nc1-c1ccc(OCC(F)(F)F)cc1`
Data returned: low range

Data request: Sort into band: `Cc1cc(Cl)ccc1-c1n[nH]cc1CN(C)CCN`
Data returned: low range

Data request: Using the reported IC50, which band applies to `CNCCN(C)Cc1cnn(CC(=O)OC)c1-c1ccc(OC(C)C)cc1` ?
Data returned: high range

Data request: Band of `CC[C@H](C)Oc1ccc(-c2n[nH]cc2CN(C)CCNC)cc1` ?
Data returned: low range

Data request: Please indicate the class for `CNC(=O)c1cc(-c2n[nH]cc2CN(C)CCN)ccc1Oc1ccccc1` based on its IC50.
Data returned: low range

Data request: Lab log: `CNCCN(C)Cc1c[nH]nc1-c1ccc(Cl)c(F)c1` — assign IC50 category
Data returned: low range

Data request: Please report the category associated with `CNCCN(C)Cc1c[nH]nc1-c1ccc(OC)c(F)c1` , nothing else.
Data returned: low range

Data request: Please let me know in which category the item `CNCCN(C)Cc1cn(CC(=O)OC)nc1-c1ccc(OC(C)C)cc1` belongs.
Data returned: high range

Data request: Textbook exercise: identify the category of the molecule given here, `CNCCN(C)Cc1c[nH]nc1-c1cc(C(C)C)cc(C(C)C)c1` , according to its measured value.
Data returned: high range

Data request: Kindly identify the class of `CN(CCN)Cc1c[nH]nc1-c1ccc(F)cc1F` .
Data returned: mid range

Data request: Where would `CNCCN(C)Cc1cn(Cc2ccccn2)nc1-c1ccc(OC(C)C)cc1` land among the classes by reported IC50?
Data returned: high range

Data request: Quick check: band for `CN(CCN)Cc1c[nH]nc1-c1cccc(Cl)c1F`
Data returned: low range

Data request: Assign a bin to `CC[C@@H](C)Oc1ccc(-c2n[nH]cc2CN(C)CCNC)cc1`
Data returned: low range

Data request: # classify by IC50 band: `CN(CCN)Cc1n[nH]cc1-c1ccc(OC(F)F)cc1`
Data returned: mid range

Data request: Quick check: band for `CNCCN(C)Cc1c[nH]nc1-c1ccc(OC(COC)COC)cc1`
Data returned: mid range

Data request: Please classify: `CN(CCN)Cc1c[nH]nc1-c1ccc(Oc2cccc(F)c2)cc1`
Data returned: low range

Data request: // bin(item) where item = `CN(CCN)Cc1c[nH]nc1-c1ccc(C2CCOCC2)cc1`
Data returned: low range

Data request: Which band does `CNCCN(C)Cc1c[nH]nc1-c1ccc(OC)cc1` fall in?
Data returned: low range

Data request: Note: place this molecule into its band. Item: `CC(C)Oc1ccc(-c2nn(C)cc2CN(C)CCN)cc1`
Data returned: mid range

Data request: Tag the class for `CN(CCN)Cc1c[nH]nc1-c1ccccc1C#N`
Data returned: high range

Data request: Please classify: `CCNC(=O)c1ccc(-c2n[nH]cc2CN(C)CCN)cc1`
Data returned: low range

Data request: Which class is correct for the following molecule? `CNCCN(C)Cc1c[nH]nc1-c1ccccc1OC(F)(F)F`
Data returned: high range

Data request: Pick a category. Item: `CCC(CC)Oc1ccc(-c2n[nH]cc2CN(C)CCNC)cc1`
Data returned: low range

Data request: Pick a category. Item: `NCCN(Cc1c[nH]nc1-c1ccc(F)cc1)C1CC1`
Data returned: mid range

Data request: Which IC50 category applies to `CN(CCN)Cc1n[nH]cc1-c1ccc(OC2CC2)cc1` here?
Data returned: mid range

Data request: Class (by measured IC50) for CNCCN(C)Cc1c[nH]nc1-c1ccc(OC(COC)CC(C)C)cc1 (stereo not shown)
Data returned: mid range

Data request: Class label required: `CNCCN(C)Cc1c[nH]nc1-c1ccc(C(F)(F)F)cc1`
Data returned: low range
